The reported measurements were obtained from patent US6982348B2.

reported_property: melting point

Before answering, review these 5 worked examples.
# compound, value_observed
records = [
    ("O=C(N[C@H](Cc1cccc(C=C(F)C(F)F)c1)[C@@H](O)c1ccc(F)cc1)c1cccc2c1C=CCCC2 (racemic)", "165 to 167 °C"),
    ("O=C(N[C@H](Cc1ccc(F)cc1)[C@@H](O)c1ccc(C(F)(F)F)cc1)c1ccc(F)c2ccccc12 (racemic)", "235 to 236 °C"),
    ("O=C(N[C@H](Cc1cccc(CC(F)(F)C(F)F)c1)[C@@H](O)c1ccc(F)cc1)c1cccc2c1C=CCCC2 (racemic)", "165 to 166 °C"),
    ("O=C(N[C@H](Cc1cccc(OCC(F)(F)F)c1)[C@@H](O)c1ccc(F)cc1)c1ccc(F)c2ccccc12 (racemic)", "192 to 193 °C"),
    ("O=C(N[C@H](Cc1ccc(CC(F)(F)C(F)(F)F)cc1)[C@@H](O)c1cccc(Cl)c1)c1cccc2c(Cl)cccc12 (racemic)", "216 to 217 °C"),
]

Query block: Would you mind telling me what melting point value was observed for CC(=CC(=O)N[C@H](Cc1ccc(C(F)(F)F)cc1)[C@@H](O)c1ccc(F)cc1)C(F)(F)F (racemic) ?
Result block: 182 to 183 °C

Query block: Another compound: CC(C)(C)c1ccc(C[C@@H](NC(=O)c2ccc(F)c3ccccc23)[C@@H](O)c2cccc(Cl)c2)cc1 (racemic)
Result block: 144 to 145 °C

Query block: Another compound: O=C(CCCc1cccs1)NC(Cc1ccc(C(F)(F)F)cc1)C(O)c1ccc(F)cc1 (racemic)
Result block: 123 to 124 °C

Query block: Another compound: O=C(N[C@H](Cc1cccc(OC(F)(F)C(F)F)c1)[C@@H](O)c1ccnc(F)c1)c1ccc(F)c2ccccc12 (racemic)
Result block: 170 to 171 °C

Query block: Another compound: O=C(N[C@H](Cc1ccc(C(F)(F)F)cc1)[C@@H](O)c1ccc(F)c(F)c1)c1ccc(F)c2ccccc12 (racemic)
Result block: 197 to 198 °C

Query block: Another compound: CC(C)(C)c1ccc(C[C@@H](NC(=O)c2cccc3c2C=CCCC3)[C@@H](O)c2cccc(Cl)c2)cc1 (racemic)
Result block: 142 to 143 °C

Query block: Another compound: O=C(N[C@H](Cc1cccc(OC(F)(F)C(F)F)c1)[C@@H](O)c1cccc(F)c1)c1cccc2c1C=CCCC2 (racemic)
Result block: 150 to 155 °C

Query block: Another compound: O=C(CC1CCCC1)N[C@H](Cc1ccc(C(F)(F)F)cc1)[C@@H](O)c1ccc(F)cc1 (racemic)
Result block: 195 to 196 °C

---

reported_property: melting point

Before answering, review these 3 worked examples.
# compound, melting point
rows = [
    ("O=C(N[C@H](Cc1ccc(C(F)(F)F)cc1)[C@@H](O)c1cccc(F)c1)c1ccc(F)c2ccccc12 (racemic)", "200 to 201 °C"),
    ("N#Cc1ccc(C[C@@H](NC(=O)c2ccc(F)c3ccccc23)[C@@H](O)c2ccc(F)cc2)cc1 (racemic)", "248 to 249 °C"),
    ("O=C(N[C@H](Cc1ccc(C(F)(F)F)cc1)[C@@H](O)c1ccc(F)cc1)C1CCCc2ccccc21 (mixture of isomers)", "205 to 214 °C"),
]

Query block: Would you mind telling me what melting point value was observed for O=C(N[C@H](Cc1cccc(OC(F)(F)C(F)F)c1)[C@@H](O)c1ccc(-c2ccccc2)nc1)c1cccc2c1C=CCCC2 (racemic) ?
Result block: 174 to 175 °C
